# protocol: NCI Yeast Anticancer Drug Screen. Data for the mlh1 rad18 strain (AID 175)
# condition description: S. cerevisiae mlh1 rad18 strain growth inhibition; at 50.0 µM; stronger effect = higher value
Compounds without any hit were thinned out: in the full panel of roughly 79,000, 15% have a hit.
What growth inhibition was measured for each of the following?
All answers are understood in %, so give the number only.

Problem: // returns reported growth inhibition for input CCC[CH2][Ge]([CH2]CCC)([CH2]CCC)[O]C(=O)C(OC(C)=O)c1ccccc1 (stereo not drawn)
Solution: 79.5

Problem: Would you mind doing CSC(=S)N/N=C\C(O)C(O)C(O)C(O)CO (stereo not drawn) as well?
Solution: 97.8

Problem: Please answer likewise for Cc1cc(S(=O)(=O)Nc2nc(N)nc(N(C)C)n2)c(SC(C(=O)O)c2ccccc2)cc1Cl (stereo not drawn)
Solution: 5.3

Problem: Record: Cc1ccc(C)c([N+](=O)[O-])c1
Solution: 28.2

Problem: And then O=c1c2ccccc2ncn1Cc1ccccc1[N+](=O)[O-] , what is it?
Solution: -6.15

Problem: Now consider CCOC(=O)C(/C=N\C(=S)Nc1c(CC)cccc1C(C)(C)C)=C(/O)c1ccccc1 .
Solution: 63

Problem: Then what about the molecule Cn1nc(N)c2cccnc21 ?
Solution: 0.35

Problem: How about Cc1[nH]c2ccccc2c1/C=C1/CCCCCCC1=O ?
Solution: 97.3

Problem: Same lookup for Cc1ccc2c(c1)SSc1ccc(C)cc1SS2 , please.
Solution: 64.8

Problem: Same again, this time with OCCC(CCN1CCOCC1)(c1ccccc1)C1(O)CCCC1 (stereo not drawn)
Solution: 73.8

Problem: Let us now turn to CCn1cnc2[nH]cc(C#N)c2c1=O
Solution: 36.7

Problem: Same again, this time with COC1OC(CI)C(OC(c2ccccc2)(c2ccccc2)c2ccccc2)C(OC(c2ccccc2)(c2ccccc2)c2ccccc2)C1OC(c1ccccc1)(c1ccccc1)c1ccccc1 (stereo not drawn)
Solution: 95.9

Problem: Cool, now CC(c1ccccc1C(=O)O)c1cccc2ccccc12 (stereo not drawn)
Solution: 92.8

Problem: Now the molecule CC1(C)CC(=O)C(C=NC(=S)c2ccccc2)=C(O)C1
Solution: 22.1

Problem: What about CCCCCCCCCCS(=O)(=O)Nc1ccc(C(=O)NN)cc1 ?
Solution: 92.7

Problem: Repeat for the following molecule: Cc1ccc(S(=O)(=O)CC2(Br)Cc3ccccc3C2=O)cc1 (stereo not drawn)
Solution: 98.5

Problem: Also, CC(C)c1c(P(=O)(c2ccccc2)c2ccccc2)n(C)c2ccccc12 please.
Solution: 79.6

Problem: Repeat for the following molecule: CN(C)c1ccc(C(c2cc3c(cc2O)OCO3)N2CCCC2)cc1 (stereo not drawn)
Solution: 99.2

Problem: Ok, now O=C(Nc1cc(Cl)cc(Cl)c1)C(F)(F)F
Solution: 97.4

Problem: What about this molecule? CCOC(=O)c1c(SCC#N)n(-c2ccccc2)c(=S)n(-c2ccccc2)c1=O
Solution: 75.2

Problem: Now the same for O=c1cc(-c2cccc(OCc3ccccc3)c2)[nH]c2cc3c(cc12)OCO3
Solution: -51.5

Problem: Could you do the same for O=C(C[N+]12CN3CN(CN(C3)C1)C2)c1ccc(Cl)cc1Cl , please?
Solution: 99.4

Problem: What about CN1C(=O)C(C2C(=O)N(C)C(=O)N(C)C2=O)C(=O)N(C)C1=O ?
Solution: 8.55

Problem: And for COc1cc(N=Nc2ccccc2)cc(/C=N/NC(N)=S)c1O ?
Solution: 90.8

Problem: What about C/C(=N/NC(=S)N1CCCC1)c1cccc(/C(C)=N\NC(=S)N2CCCC2)n1 ?
Solution: 1.65

Problem: // query: O=C(COc1ccc(Cl)c(Cl)c1)Nc1ccc[n+](Cc2ccc(Cl)c(Cl)c2)c1
Solution: 98.8

Problem: Then CCOC(=O)CCCCCN ?
Solution: -30.3

Problem: Repeat with COc1ccc2c(Cc3cc(Cl)ccc3O)cncc2c1O
Solution: 82.3

Problem: Same read-out for Cc1cc(C=Nc2ccccc2)c(O)c2ncccc12 ?
Solution: 99.2

Problem: Repeat with Nc1ccccc1/C=C1/Sc2cc[nH]c2C1=O
Solution: -9.8

Problem: For O=C(O)CNc1ccc2c(c1)Cc1cc(Br)ccc1-2 then?
Solution: 97.7

Problem: Next molecule up: CC(C)(C)NC(=S)N/N=C/c1cc(Cl)cc(Cl)c1O
Solution: 80.7

Problem: Item: Cc1[nH]nc(C(=O)OC(C)C)c1N=NN(C)C
Solution: 98.7

Problem: Request: O=C1C=CC(=NN=C(c2ccccc2)c2ccccc2)C=C1
Solution: 53

Problem: Same read-out for O=[N+]([O-])c1cccc2c[n+](Cc3ccccc3)ccc12 ?
Solution: 12.3

Problem: # repeat for O=C(NCCNCCNCCNC(=O)c1cc(-c2ccccc2)nc2ccccc12)c1cc(-c2ccccc2)nc2ccccc12
Solution: 99

Problem: Same question, O=C1/C(=C\c2ccc(Cl)cc2Cl)Sc2scc(-c3ccc(O)c(O)c3)[n+]21 this time
Solution: 91.8

Problem: Again, but for COc1ccc(C2N(Cc3ccc(Cl)cc3)CCN2Cc2ccc(Cl)cc2)cc1
Solution: 50.5
